As shown below, each of these compounds has a reported viability, T/C value.
Test system: 253994-281-T-J1-PDC KRAS-mutant spheroids with HUVEC/MSC, viability;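 also: spheroids exposed to agents for seven days before readout; percent of DMSO vehicle control viability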
Assay: Anticancer human tumor 253994-281-T-J1-PDC patient-derived colorectal carcinoma cell line growth inhibition [KRAS2]
Conditions: compound 1 µM; hits give low values
value.kind: viability, T/C

# compound, result
data = [
    ("CC(=O)OC12COC1CC(O)C1(C)C(=O)C(O)C3=C(C)C(OC(=O)C(O)C(NC(=O)OC(C)(C)C)c4ccccc4)CC(O)(C(OC(=O)c4ccccc4)C21)C3(C)C (stereo not drawn)", "28.2% [middle of 5 runs]"),
    ("COc1cc(Nc2ncc3c(n2)-c2ccc(Cl)cc2C(c2c(F)cccc2OC)=NC3)ccc1C(=O)O", "44.9% [middle of 5 runs]"),
    ("CCNC(=O)CC1N=C(c2ccc(Cl)cc2)c2cc(OC)ccc2-n2c(C)nnc21 (stereo not drawn)", "96.3% [middle of 5 runs]"),
    ("COc1cc(OC)cc(N(CCNC(C)C)c2ccc3ncc(-c4cnn(C)c4)nc3c2)c1", "88.1% [middle of 5 runs]"),
    ("COC(=O)c1ccc2c(C(=Nc3ccc(N(C)C(=O)CN4CCN(C)CC4)cc3)c3ccccc3)c(O)[nH]c2c1", "92.3% [middle of 5 runs]"),
    ("CC(C)NCC(C(=O)N1CCN(c2ncnc3c2C(C)CC3O)CC1)c1ccc(Cl)cc1 (stereo not drawn)", "97.2% [middle of 5 runs]"),
    ("CCN1CCN(Cc2ccc(Nc3ncc(F)c(-c4cc(F)c5nc(C)n(C(C)C)c5c4)n3)nc2)CC1", "51.2% [middle of 5 runs]"),
    ("Cn1nccc1Nc1nccc(-c2cc3c(s2)C(C)(C)N(CCN2CCOCC2)C3=O)n1", "84.1% [middle of 5 runs]"),
]
